Target Entity: F508delCFTR (Homo sapiens, UniProt P13569, DEL508-508)
Construct: expressed in transfected cells; host or cells: CFBE41o- human lung-derived epithelial cells (CFBE4lo-F508delCFTR-HRP), doxycycline-inducible
Sequence (P13569 with tags, fused parts or gaps DEL508-508): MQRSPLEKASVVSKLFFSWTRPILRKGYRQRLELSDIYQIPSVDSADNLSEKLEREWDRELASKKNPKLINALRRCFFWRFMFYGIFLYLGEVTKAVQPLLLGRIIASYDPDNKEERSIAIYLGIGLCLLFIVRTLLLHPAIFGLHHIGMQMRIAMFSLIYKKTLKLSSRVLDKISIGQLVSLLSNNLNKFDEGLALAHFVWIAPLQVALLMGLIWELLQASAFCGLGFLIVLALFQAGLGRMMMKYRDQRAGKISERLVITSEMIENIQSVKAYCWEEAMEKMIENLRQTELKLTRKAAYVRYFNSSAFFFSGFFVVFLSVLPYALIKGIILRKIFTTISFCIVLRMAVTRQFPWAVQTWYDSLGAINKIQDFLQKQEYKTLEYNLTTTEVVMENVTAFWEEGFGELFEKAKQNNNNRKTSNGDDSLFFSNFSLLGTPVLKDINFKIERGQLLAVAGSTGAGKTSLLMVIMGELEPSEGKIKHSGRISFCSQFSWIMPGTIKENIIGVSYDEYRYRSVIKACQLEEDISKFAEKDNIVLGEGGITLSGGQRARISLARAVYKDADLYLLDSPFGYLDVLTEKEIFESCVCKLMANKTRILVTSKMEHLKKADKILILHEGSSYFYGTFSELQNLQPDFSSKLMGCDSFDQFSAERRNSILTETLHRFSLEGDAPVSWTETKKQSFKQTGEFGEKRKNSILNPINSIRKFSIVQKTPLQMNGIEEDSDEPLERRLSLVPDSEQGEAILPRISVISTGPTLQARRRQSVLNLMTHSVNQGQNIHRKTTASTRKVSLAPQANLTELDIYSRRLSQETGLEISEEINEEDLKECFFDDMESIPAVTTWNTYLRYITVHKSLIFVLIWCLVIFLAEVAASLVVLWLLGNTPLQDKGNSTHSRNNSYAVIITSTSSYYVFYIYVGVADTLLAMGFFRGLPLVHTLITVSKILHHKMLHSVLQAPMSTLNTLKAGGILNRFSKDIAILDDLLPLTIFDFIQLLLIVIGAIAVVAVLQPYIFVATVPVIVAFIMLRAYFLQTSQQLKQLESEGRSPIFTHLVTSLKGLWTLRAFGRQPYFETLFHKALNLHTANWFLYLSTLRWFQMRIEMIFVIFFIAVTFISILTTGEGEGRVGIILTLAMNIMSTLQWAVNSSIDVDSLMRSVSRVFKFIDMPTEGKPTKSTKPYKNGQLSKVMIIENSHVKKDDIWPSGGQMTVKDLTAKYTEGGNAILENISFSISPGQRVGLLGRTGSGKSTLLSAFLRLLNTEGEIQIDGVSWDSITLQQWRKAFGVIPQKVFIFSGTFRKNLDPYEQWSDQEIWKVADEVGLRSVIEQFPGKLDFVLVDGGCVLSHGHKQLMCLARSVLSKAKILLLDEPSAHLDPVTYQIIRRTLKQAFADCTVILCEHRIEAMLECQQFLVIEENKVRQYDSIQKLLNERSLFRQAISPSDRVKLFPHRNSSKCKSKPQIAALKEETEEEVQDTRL
Protocol Notes: Cell Surface Expression-Horse Radish Peroxidase (CSE-HRP) Assay;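 note: percent of the 2 µM on-plate positive control corrector response above DMSO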
Format: cell-based
Measurement Conditions: test compound without co-corrector; maximum at any tested concentration, normalized to on-plate positive control; read-out: Maximum % activity (without co-corrector)
# Emax annotations

Worked set:
COc1ccc(C(C)(C)C)cc1CN[C@H]1[C@H](C(C)(C)C)[C@@H](C(=O)O)N(C(=O)C2CCCC(C)C2)[C@H]1c1ccccc1 (stereo partly shown): > 200%
COc1ncc(-c2ccccc2C)cc1CN[C@H]1[C@H](C(C)(C)C)[C@@H](C(=O)O)N(C(=O)C2CCCCC2)[C@H]1c1ccccc1: > 200%
COc1ccc(C(C)(C)C)cc1CN[C@H]1[C@H](C(C)(C)C)[C@@H](C(=O)O)N(C(=O)OC(C)C)[C@H]1c1ccccc1C: > 200%
COCCn1ccnc1CN[C@@H]1[C@@H](C(C)(C)C)[C@H](C(=O)O)N(C(=O)C2CCCCC2)[C@@H]1c1ccccc1 (racemic): < 100%
COc1ccc(C(F)(F)F)cc1CN[C@H]1[C@H](C(C)(C)C)[C@@H](C(=O)O)N(C(=O)[C@@H]2CCCO2)[C@H]1c1ccccc1C(C)C: > 200%
COc1ncc(-c2ccccc2)cc1CN[C@H]1[C@H](C(C)(C)C)[C@@H](C(=O)O)N(C(=O)C2CCCCC2)[C@H]1c1ccccc1F: 100 to 200%
COc1ccc(C(C)(C)C)cc1CN[C@H]1[C@H](C(C)(C)C)[C@@H](C(=O)O)N(C(=O)[C@]2(C)CCc3c(OC)cccc32)[C@H]1c1ccccc1: 100 to 200%
COc1ccc(OC)c(CN[C@@H]2[C@@H](C(C)(C)C)[C@H](C(=O)O)N(C(=O)C3CCCCC3)[C@@H]2c2ccccc2)c1 (racemic): < 100%
COc1ncc(C(F)(F)F)cc1CN[C@H]1[C@H](C(C)(C)C)[C@@H](C(=O)O)N(C(=O)OC(C)C)[C@H]1c1cccnc1N1CCC1: > 200%

// moving on: another record for Emax
// assay F508delCFTR (Homo sapiens, UniProt P13569, DEL508-508), entry COc1ccc(OC(F)(F)F)cc1CN[C@H]1[C@H](C(C)(C)C)[C@@H](C(=O)O)N(C(=O)OC(C)C)[C@H]1c1ccccc1C(C)C , Emax value = > 200%

* * *

Target Entity: F508delCFTR (Homo sapiens, UniProt P13569, DEL508-508)
Construct: expressed in transfected cells; host or cells: CFBE41o- human lung-derived epithelial cells (CFBE4lo-F508delCFTR-HRP), doxycycline-inducible
Protocol Notes: Cell Surface Expression-Horse Radish Peroxidase (CSE-HRP) Assay;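 note: percent of the 2 µM on-plate positive control corrector response above DMSO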
Type: cell-based
Measurement Conditions: test compound without co-corrector; maximum at any tested concentration, normalized to on-plate positive control; read-out: Maximum % activity (without co-corrector)
Observed Property: Emax

Worked set:
COc1cccc([C@@H]2[C@H](NCc3ccccc3OC(F)F)[C@@H](C(C)(C)C)[C@H](C(=O)O)N2C(=O)N(C(C)C)C(C)C)n1 (racemic) [III-59]: < 100%
CC(C)(C)[C@H]1[C@H](Nc2ccc(C3(C#N)CC3)cn2)[C@H](c2ccccc2)N(C(=O)C2CCCCC2)[C@@H]1C(=O)O [III-159]: < 100%

// moving on: another record for Emax
Memo: COc1ncc(C(F)(F)F)cc1CN[C@H]1[C@H](C(C)(C)C)[C@@H](C(=O)O)N(C(=O)C2CCC(C)(C)O2)[C@H]1c1ccccc1 (stereo partly drawn) [II-434] , reported Emax: 100 to 200%

* * *

Target Entity: F508delCFTR (Homo sapiens, UniProt P13569, DEL508-508)
Construct: expressed in transfected cells; host or cells: CFBE41o- human lung-derived epithelial cells (CFBE4lo-F508delCFTR-HRP), doxycycline-inducible
Protocol Notes: Cell Surface Expression-Horse Radish Peroxidase (CSE-HRP) Assay;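 note: percent of the 2 µM on-plate positive control corrector response above DMSO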
Format: cell-based
Measurement Conditions: without co-corrector; maximum at any tested concentration, normalized to on-plate positive control; read-out: Maximum % activity (without co-corrector)
# Emax annotations

COc1ccc(C(C)(C)C)cc1CN[C@H]1[C@H](C(C)(C)C)[C@@H](C(=O)O)N(C(=O)C2CCCC(F)(F)C2)[C@H]1c1cccnc1N(C)C (single isomer, unassigned) [Example 42]: > 200%
COc1ccc(C(F)(F)F)cc1CN[C@H]1[C@H](C2(C)CC2)[C@@H](C(=O)O)N(C(=O)C2CCCCC2)[C@H]1c1ccccc1 [Example I-136]: 100 to 200%
COc1ccc(C(C)(C)C)cc1CN[C@H]1[C@H](C(C)(C)C)[C@@H](C(=O)O)N(C(=O)[C@H]2CCCCO2)[C@H]1c1ccccc1OC(F)F [Example 45]: 100 to 200%
COc1ccc(C(C)(C)C)cc1CN[C@H]1[C@H](C(C)(C)C)[C@@H](C(=O)O)N(C(=O)C2Cc3ccccc3O2)[C@H]1c1ccccc1 (single isomer, unassigned) [Example 28]: > 200%
COc1ccc(C(C)(C)C)cc1CN[C@H]1[C@H](C(C)(C)C)[C@@H](C(=O)O)N(C(=O)C2CCC2)[C@H]1c1cccnc1N1CCC1 [Example 102]: 100 to 200%
COc1ccc(C(C)(C)C)cc1CN[C@H]1[C@H](C(C)(C)C)[C@@H](C(=O)O)N(S(=O)(=O)c2ccccc2)[C@H]1c1ccccc1 [Example 15]: 100 to 200%
COc1ccc(C(C)(C)C)cc1CN[C@H]1[C@H](C(C)(C)C)[C@@H](C(=O)O)N(C(=O)[C@@H](Cc2ccccc2)OC)[C@H]1c1ccccc1 [Example 32]: > 200%
COc1ccc(C(C)(C)C)cc1CN[C@H]1[C@H](C(C)(C)C)[C@@H](C(=O)O)N(C(=O)[C@@H]2CCCC(F)(F)C2)[C@H]1c1ccccc1 [Example 31]: > 200%

// moving on: another record for Emax
// assay F508delCFTR (Homo sapiens, UniProt P13569, DEL508-508), entry COc1ncc(C2CCC2)cc1CN[C@H]1[C@H](C(C)(C)C)[C@@H](C(=O)O)N(C(=O)OC(C)C)[C@H]1c1ccccc1C1CC1 [Example 93] , Emax value = > 200%

* * *

Target Entity: F508delCFTR (Homo sapiens, UniProt P13569, DEL508-508)
Construct: expressed in transfected cells; host or cells: CFBE41o- human lung-derived epithelial cells (CFBE4lo-F508delCFTR-HRP), doxycycline-inducible
Protocol Notes: Cell Surface Expression-Horse Radish Peroxidase (CSE-HRP) Assay;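 note: percent of the 2 µM on-plate positive control corrector response above DMSO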
Type: cell-based
Measurement Conditions: CSE-HRP; without co-corrector; maximum at any tested concentration, normalized to on-plate positive control; read-out: Maximum % activity (without co-corrector)
Observed Property: Emax

COc1cc(CN[C@H]2[C@H](C(C)(C)C)[C@@H](C(=O)O)N(C(=O)C3CCCCC3)[C@H]2c2ccccc2)c(Br)cc1F [II-114]: < 100%
COc1ccc(Cl)cc1CN[C@H]1[C@H](C(C)(C)C)[C@@H](C(=O)O)N(C(=O)OC(C)C)[C@H]1c1ccccc1OC [II-137]: 100 to 200%
COc1ccc(-c2cnn(C3CCC3)c2)cc1CN[C@H]1[C@H](C(C)(C)C)[C@@H](C(=O)O)N(C(=O)C2CCCCC2)[C@H]1c1ccccc1 [II-290]: < 100%

// assay F508delCFTR (Homo sapiens, UniProt P13569, DEL508-508), entry COc1ccc(C(C)(C)C)cc1CN[C@H]1[C@H](C(C)(C)C)[C@@H](C(=O)O)N(C(=O)CC2C=CCCC2)[C@H]1c1ccccc1 (stereo partly shown) [II-212] , Emax value = > 200%

// assay F508delCFTR (Homo sapiens, UniProt P13569, DEL508-508), entry COc1ccc(-c2cccc(C#N)c2)cc1CN[C@H]1[C@H](C(C)(C)C)[C@@H](C(=O)O)N(C(=O)C2CCCCC2)[C@H]1c1ccccc1 [II-281] , Emax value = 100 to 200%

// assay F508delCFTR (Homo sapiens, UniProt P13569, DEL508-508), entry COc1ccc(F)c(CN[C@H]2[C@H](C(C)(C)C)[C@@H](C(=O)O)N(C(=O)C3CCCCC3)[C@H]2c2ccccc2)c1 [II-106] , Emax value = < 100%

// assay F508delCFTR (Homo sapiens, UniProt P13569, DEL508-508), entry COc1ccc(C(F)(F)F)cc1CN[C@H]1[C@H](C(C)(C)C)[C@@H](C(=O)O)N(C(=O)OC(C)C)[C@H]1c1ccccc1OC [II-136] , Emax value = 100 to 200%

// assay F508delCFTR (Homo sapiens, UniProt P13569, DEL508-508), entry COc1ncc(Br)cc1CN[C@H]1[C@H](C(C)(C)C)[C@@H](C(=O)O)N(C(=O)OC(C)C)[C@H]1c1ccccc1 [II-170] , Emax value = > 200%

// assay F508delCFTR (Homo sapiens, UniProt P13569, DEL508-508), entry COc1ccc(C(C)(C)C)cc1CN[C@H]1[C@H](C2(C)CC2)[C@@H](C(=O)O)N(C(=O)C2CCCCC2)[C@H]1c1ccccc1 [II-302] , Emax value = > 200%

// assay F508delCFTR (Homo sapiens, UniProt P13569, DEL508-508), entry COc1ccc(C(C)(C)C)cc1CN[C@H]1[C@H](C(C)(C)C)[C@@H](C(=O)O)N(C(=O)Cc2cc(F)cc(F)c2)[C@H]1c1ccccc1 [II-200] , Emax value = 100 to 200%
